Source of measurements: patent US9062028B2

Molecular target: recombinant human TGR5 (Homo sapiens, UniProt Q8TDU6)
Sequence (Q8TDU6 1-330): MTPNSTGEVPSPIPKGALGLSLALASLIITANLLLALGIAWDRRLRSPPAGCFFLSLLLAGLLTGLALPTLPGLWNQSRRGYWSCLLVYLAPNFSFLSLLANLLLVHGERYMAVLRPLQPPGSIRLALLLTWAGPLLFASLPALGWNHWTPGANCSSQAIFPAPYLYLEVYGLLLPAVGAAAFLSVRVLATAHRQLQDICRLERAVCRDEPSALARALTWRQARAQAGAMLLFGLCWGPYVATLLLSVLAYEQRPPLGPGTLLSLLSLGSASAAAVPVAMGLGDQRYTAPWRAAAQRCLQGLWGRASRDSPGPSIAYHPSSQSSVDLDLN
Experiment: cAMP assay (cAMP accumulation, HTRF) in CHOK1 cells stably expressing TGR5
Conditions: CHOK1 cells stably expressing human TGR5, 30 minutes at RT, 1% DMSO
Procedure: The in vitro modulation of recombinant human TGR5 was determined as follows. A human TGR5 expression construct of human TGR5 was integrated into the genome of a CHOK1 cell line (Invitrogen). […] On the day of the cAMP accumulation assay, cells stably expressing the […] TGR5 construct were centrifuged at 1000 rpm for 5 minutes. […] The cells were counted using 1:2 dilution and then adjusted to 0.4-0.5×10^6 cells/mL in assay buffer, if necessary. […]
Structures can show the parent of a compound that is named as a salt.
Items are presented alongside their recorded log10 of EC50.
Record value = log10 of EC50 given in nM.

(Q) Fill in the recorded log10 of EC50 for this compound, with recombinant human TGR5 (Homo sapiens, UniProt Q8TDU6) as test system: Cc1c(Cl)cccc1OCCCC(=O)N1CCCOc2c(-c3cnn(Cc4cccc(NS(=O)(=O)c5cccc(C(=O)O)c5)c4)c3)cccc21
(A) 3.21

(Q) Fill in the recorded log10 of EC50 for this compound, with recombinant human TGR5 (Homo sapiens, UniProt Q8TDU6) as test system: Cc1cccc(OCCCC(=O)N2CCCc3c(-c4cnn(CCNC(=O)C5(C(=O)O)CC5)c4)cccc32)c1C [Example 110H]
(A) 3.82

(Q) Fill in the recorded log10 of EC50 for this compound, with recombinant human TGR5 (Homo sapiens, UniProt Q8TDU6) as test system: Cc1cccc(OCCCC(=O)N2CCCc3c(-c4cnn(Cc5cccc(C(=O)N6CCC(CO)CC6)c5)c4)cccc32)c1C
(A) 2.24

(Q) Fill in the recorded log10 of EC50 for this compound, with recombinant human TGR5 (Homo sapiens, UniProt Q8TDU6) as test system: Cc1cccc(OCCCC(=O)N2CCCc3c(-c4cnn(Cc5cccc(N(C)C(=O)NCC[N+](C)(C)C)c5)c4)cccc32)c1C [Example 471, TFA salt]
(A) 3.34

(Q) Fill in the recorded log10 of EC50 for this compound, with recombinant human TGR5 (Homo sapiens, UniProt Q8TDU6) as test system: Cc1cccc(OCCCC(=O)N2CCCc3c(-c4cccc(COC(=O)NC(C)CC(=O)O)c4)cccc32)c1C (stereo not shown)
(A) 2.78

(Q) Fill in the recorded log10 of EC50 for this compound, with recombinant human TGR5 (Homo sapiens, UniProt Q8TDU6) as test system: Cc1c(Cl)cccc1OCCCC(=O)N1CCCCc2c(-c3cnn(Cc4cccc(C(=O)NCCC(=O)O)c4)c3)cccc21
(A) 2.27

(Q) Fill in the recorded log10 of EC50 for this compound, with recombinant human TGR5 (Homo sapiens, UniProt Q8TDU6) as test system: Cc1cccc(OCCCC(=O)N2CCCc3c(-c4cnn(CC5(CNC(=O)NCCS(=O)(=O)O)CC5)c4)cccc32)c1C [Example 69J]
(A) 3.70

---

Molecular target: recombinant human TGR5 (Homo sapiens, UniProt Q8TDU6)
Sequence (Q8TDU6 1-330): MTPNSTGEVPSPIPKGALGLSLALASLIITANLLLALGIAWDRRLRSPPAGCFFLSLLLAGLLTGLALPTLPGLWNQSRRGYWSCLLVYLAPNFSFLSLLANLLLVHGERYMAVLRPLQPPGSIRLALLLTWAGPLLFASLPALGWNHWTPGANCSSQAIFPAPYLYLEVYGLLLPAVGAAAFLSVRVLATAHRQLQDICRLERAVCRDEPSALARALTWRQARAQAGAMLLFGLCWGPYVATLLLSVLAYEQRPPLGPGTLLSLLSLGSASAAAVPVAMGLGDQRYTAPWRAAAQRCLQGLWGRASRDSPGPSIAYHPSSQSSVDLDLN
Test: cAMP assay (cAMP accumulation, HTRF) in CHOK1 cells stably expressing TGR5
Conditions: CHOK1 cells stably expressing human TGR5, 30 minutes at RT, 1% DMSO
reported property: EC50 (µM)
A number alone suffices; assume µM.

Solved entries (count: 5):
(Q) Need EC50, item Cc1cccc(OCCCC(=O)N2CCCc3c(-c4ccn(Cc5cccc(C(=O)NCCS(=O)(=O)O)c5)c4)cccc32)c1C [Example 168N]
(A) 4.37

(Q) Need EC50, item Cc1c(Cl)cccc1OCCCC(=O)N1CC2CC2c2c(-c3cnn(Cc4cccc(C(=O)NCS(=O)(=O)O)c4)c3)cccc21 (stereo not drawn)
(A) 0.055

(Q) Need EC50, item Cc1cccc(OCCCC(=O)N2CCCc3c(-c4ccc(OCc5cccc(C(=O)O)c5)cn4)cccc32)c1C
(A) 1.27

(Q) Need EC50, item Cc1cccc(OCCCC(=O)N2CCCc3c(-c4cnn(CCNC(=O)C5(C(=O)NCCS(=O)(=O)O)CC5)c4)cccc32)c1C [Example 110K]
(A) 5

(Q) Need EC50, item Cc1cccc(OCCCC(=O)N2CCCc3c(-c4cnn(C(C)(C)C(=O)NCCS(=O)(=O)O)c4)cccc32)c1C [Example 146Y]
(A) 2.86

Alright, here's another compound for you.
(Q) Need EC50, item Cc1cccc(OCCCC(=O)N2C[C@@H]3C[C@@H]3c3c(-c4cnn(Cc5cccc(NC(=O)NCC(=O)O)c5)c4)cccc32)c1C (single isomer, unassigned)
(A) 0.029

---

Items are presented alongside their recorded pEC50.
Biological target: recombinant human TGR5 (Homo sapiens)
Assay: cAMP assay (cAMP accumulation, HTRF) in CHOK1 cells stably expressing TGR5
Details: CHOK1 cells stably expressing human TGR5, 30 minutes at RT, 1% DMSO
Counter-ions that a name gives are not always drawn.
// pEC50: -log10(molar conc.)

Solved entries (count: 8):
(Q) Need pEC50, item Cc1cccc(OCCCC(=O)N2CCCc3c(-c4cccc(COC(=O)N[C@H](CO)C(=O)O)c4)cccc32)c1C [Example 282]
(A) 6.18

(Q) Need pEC50, item Cc1cccc(N(CCCC(=O)N2CCCc3c(-c4cnn(Cc5cccc(C(=O)O)c5)c4)cccc32)C(=O)OC(C)(C)C)c1C [Example 933]
(A) 5.79

(Q) Need pEC50, item Cc1cccc(OCCCC(=O)N2CCCc3c(-c4cnn(Cc5ccc[n+](C)c5)c4)cccc32)c1C [Example 467]
(A) 5.53

(Q) Need pEC50, item Cc1cccc(OCCCC(=O)N2C[C@@H]3C[C@@H]3c3c(-c4cnn(Cc5cccc(NC(=O)NCCC(=O)O)c5)c4)cccc32)c1C (single isomer, unassigned) [Example 248]
(A) 7.25

(Q) Need pEC50, item Cc1cccc(OCCCC(=O)N2CCSc3c(-c4cnn(Cc5c(F)cc(C(=O)NCC(=O)O)cc5Cl)c4)cccc32)c1C [Example 576]
(A) 7.32

(Q) Need pEC50, item Cc1c(Cl)cccc1OCCCC(=O)N1CCCOc2c(-c3cnn(Cc4c(F)cc(C(=O)NCC[N+](C)(C)C)cc4F)c3)cccc21 [Example 724, TFA salt]
(A) 5.88

(Q) Need pEC50, item Cc1c(Cl)cccc1OCCOC(=O)N1C[C@@H]2C[C@@H]2c2c(-c3cnn(Cc4ccc(C(=O)O)cc4Cl)c3)cccc21 [Example 436]
(A) 6.77

(Q) Need pEC50, item Cc1cccc(OCCCC(=O)N2CCCc3c(-c4cnn(Cc5cccc(C(=O)N(CC(=O)O)CC(=O)O)c5)c4)cccc32)c1C [Example 475]
(A) 5.59

Others:
(Q) Need pEC50, item Cc1cccc(OCCCC(=O)N2CCCc3c(-c4cnn(Cc5cccc(S(=O)(=O)NCCS(=O)(=O)O)c5)c4)cccc32)c1C [Example 110T]
(A) 6.22

(Q) Need pEC50, item Cc1c(Cl)cccc1OCCCC(=O)N1CCSc2c(-c3cnn(Cc4cccc(C(=O)NCCO)c4)c3)cccc21 [Example 592]
(A) 7.52

(Q) Need pEC50, item Cc1cccc(OCCCC(=O)N2CCCc3c(-c4cccc(COC(=O)NC(CP(=O)(O)O)C(=O)O)c4)cccc32)c1C (centres unmarked) [Example 319]
(A) 5.42

(Q) Need pEC50, item Cc1c(Cl)cccc1OCCCC(=O)N1CCSc2c(-c3cnn(Cc4cccc(C(=O)N[C@@H](CC(N)=O)C(=O)O)c4)c3)cccc21 [Example 614]
(A) 7.34

(Q) Need pEC50, item Cc1c(Cl)cccc1OCCCC(=O)N1CCCc2c(-c3cnn(Cc4cccc(NC(=O)N[C@H](CCC(=O)O)C(=O)O)c4)c3)cccc21 [Example 534]
(A) 6.72

(Q) Need pEC50, item Cc1c(Cl)cccc1OCCCC(=O)N1CCCOc2c(-c3cnn(Cc4c(F)cc(C(=O)N[C@@H](CCCCN)C(=O)O)cc4Cl)c3)cccc21 [Example 792]
(A) 6.73

(Q) Need pEC50, item Cc1c(Cl)cccc1OCCOC(=O)N1CCSc2c(-c3cnn(Cc4cccc(C(=O)NCCC(=O)O)c4Cl)c3)cccc21 [Example 628]
(A) 6.71

(Q) Need pEC50, item Cc1cccc(OCCCC(=O)N2CCCc3c(-c4cccc(COC(=O)NC(Cc5c[nH]cn5)C(=O)O)c4)cccc32)c1C (centres unmarked) [Example 283]
(A) 5.50

(Q) Need pEC50, item Cc1cccc(OCCCC(=O)N2C[C@@H]3C[C@@H]3c3c(-c4cnn(Cc5cccc(C(=O)NC[C@@H](N)C(=O)O)c5)c4)cccc32)c1C [Example 887]
(A) 6.74

(Q) Need pEC50, item Cc1cccc(OCCCC(=O)N2CCCc3c(-c4cccc(COC(=O)NCC(C)(C)C(=O)O)c4)cccc32)c1C [Example 257]
(A) 6.17

(Q) Need pEC50, item Cc1c(Cl)cccc1OCCCC(=O)N1C[C@@H]2C[C@@H]2c2c(-c3cnn(Cc4cccc(N5C(=O)CN(CC(=O)O)C5=O)c4)c3)cccc21 [Example 350]
(A) 7.51

(Q) Need pEC50, item Cc1c(Cl)cccc1Oc1cccc(C(=O)N2CCCOc3c(-c4cnn(Cc5c(F)cc(C(=O)NCCC(=O)O)cc5Cl)c4)cccc32)c1 [Example 815]
(A) 5.70

(Q) Need pEC50, item Cc1c(Cl)cccc1OCCOC(=O)N1CC(O)COc2c(-c3cnn(Cc4c(F)cc(C(=O)O)cc4Cl)c3)cccc21 (centres unmarked) [Example 334]
(A) 5.90

(Q) Need pEC50, item Cc1cccc(OCCCC(=O)N2CC3CC3c3c(-c4cnn(Cc5cccc(N)c5)c4)cccc32)c1C (centres unmarked) [Example 69G]
(A) 7.29

(Q) Need pEC50, item Cc1cccc(OCCCC(=O)N2CCCc3c(-c4cccc(COC(=O)NC(CCS)C(=O)O)c4)cccc32)c1C (centres unmarked) [Example 289]
(A) 5.55

(Q) Need pEC50, item Cc1c(Cl)cccc1OCCCC(=O)N1CCSc2c(-c3cnn(Cc4cccc(C(=O)NCS(=O)(=O)O)c4)c3)cccc21 [Example 565]
(A) 7.32

(Q) Need pEC50, item Cc1cccc(OCCCC(=O)N2C[C@@H]3C[C@@H]3c3c(-c4cnn(Cc5cccc(C(=O)NCS(=O)(=O)O)c5)c4)cccc32)c1C (single isomer, unassigned) [Example 238]
(A) 7.23

(Q) Need pEC50, item Cc1cccc(OCCCC(=O)N2CCCc3c(-c4cnn(Cc5cccc(C(=O)N(C)[C@@H](CC(=O)O)C(=O)O)c5)c4)cccc32)c1C [Example 481]
(A) 5.81
